Test system: barnyardgrass
Assay: Test C flooded paddy test
Assay type: in vivo, Echinochloa crus-galli
Details: 125 g ai/ha, scale 0 to 100 (0 no effect, 100 complete control)
Give Barnyardgrass plant response rating for every item shown.
Could you keep your reply to the number by itself?

Prompt line: Complete the entry with Barnyardgrass plant response rating for C=CCNC(=O)c1cccc(NC(=O)c2nn(C(C)C)nc2CC)c1 [Compound 382]
Response line: 25

Prompt line: Given the compound CCn1nc(C(C)(C)C)cc1C(=O)Nc1cncc(C(=O)N2CC=CC2)c1 [Compound 260] , write its reported Barnyardgrass plant response rating.
Response line: 0

Prompt line: # return recorded Barnyardgrass plant response rating for entry CCNC(=O)c1ccc(F)c(NC(=O)c2cc(C3(C)CC3)nn2CC)c1 [Compound 300]
Response line: 50

Prompt line: Determine its reported Barnyardgrass plant response rating: CCN1N=C(C(C)(C)C)CC1C(=O)Nc1cc(C(=O)N2CC=CC2)ccc1F (racemic) [Compound 310]
Response line: 50

Prompt line: Given CCn1nc(C(C)(C)C)cc1C(=O)Nc1nc(C(=O)N2CC=CC2)ccc1F [Compound 281] , respond with its Barnyardgrass plant response rating.
Response line: 20

Prompt line: Check the records and state Barnyardgrass plant response rating for C#CCNC(=O)c1cc(NC(=O)c2cc(C(C)(C)C)nn2CC)ccn1 [Compound 283]
Response line: 0

---

What Surinam Grass plant response rating was measured for each of the following?
Test system: Surinam grass
Assay: Test B pre-/postemergence herbicide test
Type: in vivo, Urochloa decumbens
Conditions: postemergence, 125 g ai/ha; visual rating, scale 0 (no effect) to 100 (complete control)
# output: bare number, no unit

Prompt line: Write down Surinam Grass plant response rating measured for item CCn1nc(C(C)(C)C)cc1C(=O)Nc1ccnc(C(=O)N(C)C)c1 [Compound 256]
Response line: 0

Prompt line: # return recorded Surinam Grass plant response rating for entry CCn1nc(C(C)(C)C)cc1C(=O)Nc1ccc(OC)c(C(=O)OC(C)C)c1 [Compound 101]
Response line: 10

Prompt line: Supply measured Surinam Grass plant response rating of CCCCOc1cccc(NC(=O)c2cc(C(C)(C)C)nn2CC)c1 [Compound 137] in your reply.
Response line: 20

Prompt line: Item CCc1nn(C(C)(C)C)cc1C(=O)Nc1cc(C(=O)N(C)CC)ccc1F [Compound 224] : provide Surinam Grass plant response rating
Response line: 10

Prompt line: Please supply the value of reported Surinam Grass plant response rating for the item CCOC(=O)c1ccnc(NC(=O)c2cn(C(C)(C)C)nc2CC)c1 [Compound 238]
Response line: 0

Prompt line: Give the measured Surinam Grass plant response rating for CCn1nc(C(C)(C)C)cc1C(=O)Nc1cccc(C(=O)NC(C)C)c1 [Compound 51]
Response line: 10

---

Test system: barnyardgrass
Assay: Test B flooded paddy test
Format: in vivo, Echinochloa crus-galli
Conditions: 1000 g ai/ha, visual rating, scale 0 to 100 (0 no effect, 100 complete control), 13 to 15 days
quantity-name: Barnyardgrass plant response rating
API note: the answer field is a bare number with no unit suffix.

Prompt line: Consider the compound CCOc1cccc(NC(=O)c2cc(C(C)(C)C)nn2CC)c1 and give its recorded Barnyardgrass plant response rating.
Response line: 60

Prompt line: Specify reported Barnyardgrass plant response rating for the compound shown: C#CCNC(=O)c1cccc(NC(=O)c2cc(C(C)(C)C)nn2CC)n1
Response line: 60

Prompt line: Tell us which Barnyardgrass plant response rating value is on record for Cc1nn(C(C)(C)C)cc1C(=O)Nc1cccc(OC(C)C)c1
Response line: 60

---

Tested on: velvetleaf
Assay: Test A pre-/postemergence herbicide test
Type: in vivo, Abutilon theophrasti
Details: Postemergence, 2000 g ai/ha; 0 to 100 scale, 0 no effect, 100 complete control
Hi there, I'd appreciate the recorded Plant response rating, Velvetleaf for every entry that follows.
Give your answer as a number; write no unit.

Prompt line: Return reported Plant response rating, Velvetleaf. Input molecule: CCCCOc1cccc(NC(=O)c2cc(C(C)(C)C)nn2CC)c1
Response line: 70

Prompt line: Give the measured Plant response rating, Velvetleaf for CC(=O)c1cccc(NC(=O)c2cc(C(C)(C)C)nn2CCF)c1
Response line: 35

Prompt line: Entry CCc1nc(C(C)(C)C)sc1C(=O)Nc1cccc(C(=O)NC(C)(C)C)n1 needs its Plant response rating, Velvetleaf filled in; supply it.
Response line: 35

Prompt line: In one line, give reported Plant response rating, Velvetleaf of the entry C#CCNC(=O)c1cc(NC(=O)c2cc(C(C)(C)C)nn2CC)ccn1 .
Response line: 35

Prompt line: Note down Plant response rating, Velvetleaf recorded for CC(=NO)c1cccc(NC(=O)c2cc(C(C)(C)C)nn2C)c1
Response line: 0

---

Task for the reader: assign each of the following molecules its reported Rice plant response rating.
Tested on: rice
Experiment: Test B flooded paddy test
Type: in vivo, Oryza sativa
Settings: 1000 g ai/ha, scale 0 to 100 (0 no effect, 100 complete control)
Keep the answer to the number alone.

Prompt line: Retrieve Rice plant response rating measured for C#CCNC(=O)c1ccc(F)c(NC(=O)c2cc(C(C)(C)C)nn2CC)n1 and print it.
Response line: 40

Prompt line: Return value of Rice plant response rating for input CCc1nn(C(C)(C)CC)nc1C(=O)Nc1cccc(OC(F)(F)F)c1 , no commentary.
Response line: 20

Prompt line: Return the recorded Rice plant response rating value; entry: C=CCNC(=O)c1ccc(F)c(NC(=O)c2cc(C(C)(C)C)nn2CC)c1
Response line: 60

Prompt line: Return Rice plant response rating for the following molecule: CCn1nc(C(C)(C)C)cc1C(=O)Nc1ccnc(C(=O)N2CC=CC2)c1
Response line: 20

Prompt line: Dear colleague, please send me the reported Rice plant response rating for CCN(C(C)=O)C(=O)c1ccc(F)c(NC(=O)c2cc(C(C)(C)C)nn2CC)c1 when you can.
Response line: 60

Prompt line: Name the recorded Rice plant response rating of the molecule listed here: C#CCNC(=O)c1cncc(NC(=O)c2cc(C(C)(C)C)nn2CC)n1
Response line: 0

---

Please go through the items and note down their Velvetleaf plant response rating.
Tested on: velvetleaf
Assay: Test B pre-/postemergence herbicide test
Format: in vivo, Abutilon theophrasti
Conditions: postemergence, 500 g ai/ha; scale 0 to 100, 0 is no effect, 100 is complete control
Description: […] At the same time, plants selected from these crop and weed species and also blackgrass (Alopecurus myosuroides Huds.), wheat (Triticum aestivum L.) and wild oat (Avena fatua L.) were treated with postemergence applications of test chemicals formulated in the same manner. […] Treated plants and controls were maintained in a greenhouse for 13 to 15 days, after which time all species were compared to controls and visually evaluated. […]
A bare number is all that is needed in reply.

Prompt line: Tell us which Velvetleaf plant response rating value is on record for CCN(C)C(=O)c1ccc(F)c(NC(=O)c2cc(C(C)(C)C)nn2CC)n1 [Compound 280]
Response line: 20

Prompt line: Give reported Velvetleaf plant response rating value for CCNC(=O)c1ccc(F)c(NC(=O)c2cc(C3(C)CC3)nn2CC)c1 [Compound 300]
Response line: 70

Prompt line: Specify reported Velvetleaf plant response rating for the molecule shown: CCNC(=O)c1cccc(NC(=O)c2nn(C3CCCC3)nc2CC)c1 [Compound 356]
Response line: 0

Prompt line: Annotate the molecule C=CCNC(=O)c1cccc(NC(=O)c2cc(C(C)(C)C)nn2C)n1 [Compound 318] with its measured Velvetleaf plant response rating.
Response line: 80

Prompt line: Query Velvetleaf plant response rating for CCNC(=O)c1ccc(F)c(NC(=O)C2CC(C(C)(C)C)=NN2CC)c1 (racemic) [Compound 269]
Response line: 20

Prompt line: Tell me its Velvetleaf plant response rating given C#CCNC(=O)c1cc(NC(=O)c2cc(C(C)(C)C)nn2CC)ccn1 [Compound 283] as the entry.
Response line: 0

Prompt line: Return value of Velvetleaf plant response rating for input CCn1nc(C(C)(C)C)cc1C(=O)Nc1nc(C(=O)N2CC=CC2)ccc1F [Compound 281] , no commentary.
Response line: 20

---

Test system: barnyardgrass
Assay: Test A pre-/postemergence herbicide test
Format: in vivo, Echinochloa crus-galli
Conditions: Postemergence, 2000 g ai/ha; 0 to 100 scale, 0 no effect, 100 complete control
# Plant response rating, Barnyardgrass binned as b0: < 40; b1: ≥ 40 and < 80; b2: ≥ 80

Prompt line: Category of CCN(C)C(=O)c1ccc(F)c(NC(=O)c2cc(C(C)(C)C)nn2CC)n1 , please.
Response line: b0

Prompt line: Consider C#CCNC(=O)c1cccc(NC(=O)c2cc(C(C)(C)C)nn2CC)n1 . To which Plant response rating, Barnyardgrass class does it belong?
Response line: b2

Prompt line: Hi there! Could you help me figure out the category for CCc1nc(C(C)(C)C)sc1C(=O)Nc1cccc(C(=O)N(CC)CC)n1 please?
Response line: b0

Prompt line: Hello team, could you let me know which band the following compound falls into: CCN(CC)C(=O)c1cccc(NC(=O)c2cc(C(C)(C)C)nn2C)n1
Response line: b1

Prompt line: Quick check: band for CCSCNC(=O)c1cccc(NC(=O)c2cc(C(C)(C)C)nn2CC)c1
Response line: b0

Prompt line: Please classify: CCN(C(C)=O)C(=O)c1ccc(F)c(NC(=O)c2cc(C(C)(C)C)nn2CC)c1
Response line: b1

Prompt line: Which category does the recorded Plant response rating, Barnyardgrass put CCNC(=O)c1ccc(F)c(NC(=O)c2cc(C(C)(C)C)nn2CC)n1 in?
Response line: b1

Prompt line: Band assignment needed for CCn1nc(C(C)(C)C)cc1C(=O)Nc1cccc(C(=O)NCCF)c1 please.
Response line: b2

Prompt line: Band for the recorded Plant response rating, Barnyardgrass of C#CCNC(=O)c1cc(NC(=O)c2cc(C(C)(C)C)nn2CC)ccn1 ?
Response line: b0

Prompt line: Which class holds CC(=NO)c1cccc(NC(=O)c2cc(C(F)(F)F)nn2C)c1 ?
Response line: b1

Prompt line: Which class holds CCn1nc(C(C)(C)C)cc1C(=O)Nc1cc(C(=O)OC(C)(C)C)ccc1F ?
Response line: b0

Prompt line: Which band does CCNC(=O)c1cccc(NC(=O)c2cc(C(C)(C)C)nn2CCF)c1 fall in?
Response line: b2

Prompt line: For the record CCc1nc(C(C)(C)C)sc1C(=O)Nc1cccc(C(=O)NCCF)c1 , report the class its Plant response rating, Barnyardgrass corresponds to.
Response line: b1

Prompt line: Categorize the following entry: CCn1nc(C(C)(C)C)cc1C(=O)Nc1cc(C(=O)NC(C)(C)C)ccn1
Response line: b2
